# MEASURED_TARGET: Nav 1.7 (Homo sapiens (Human), UniProt Q15858)
# Sequence (Q15858 whole entry): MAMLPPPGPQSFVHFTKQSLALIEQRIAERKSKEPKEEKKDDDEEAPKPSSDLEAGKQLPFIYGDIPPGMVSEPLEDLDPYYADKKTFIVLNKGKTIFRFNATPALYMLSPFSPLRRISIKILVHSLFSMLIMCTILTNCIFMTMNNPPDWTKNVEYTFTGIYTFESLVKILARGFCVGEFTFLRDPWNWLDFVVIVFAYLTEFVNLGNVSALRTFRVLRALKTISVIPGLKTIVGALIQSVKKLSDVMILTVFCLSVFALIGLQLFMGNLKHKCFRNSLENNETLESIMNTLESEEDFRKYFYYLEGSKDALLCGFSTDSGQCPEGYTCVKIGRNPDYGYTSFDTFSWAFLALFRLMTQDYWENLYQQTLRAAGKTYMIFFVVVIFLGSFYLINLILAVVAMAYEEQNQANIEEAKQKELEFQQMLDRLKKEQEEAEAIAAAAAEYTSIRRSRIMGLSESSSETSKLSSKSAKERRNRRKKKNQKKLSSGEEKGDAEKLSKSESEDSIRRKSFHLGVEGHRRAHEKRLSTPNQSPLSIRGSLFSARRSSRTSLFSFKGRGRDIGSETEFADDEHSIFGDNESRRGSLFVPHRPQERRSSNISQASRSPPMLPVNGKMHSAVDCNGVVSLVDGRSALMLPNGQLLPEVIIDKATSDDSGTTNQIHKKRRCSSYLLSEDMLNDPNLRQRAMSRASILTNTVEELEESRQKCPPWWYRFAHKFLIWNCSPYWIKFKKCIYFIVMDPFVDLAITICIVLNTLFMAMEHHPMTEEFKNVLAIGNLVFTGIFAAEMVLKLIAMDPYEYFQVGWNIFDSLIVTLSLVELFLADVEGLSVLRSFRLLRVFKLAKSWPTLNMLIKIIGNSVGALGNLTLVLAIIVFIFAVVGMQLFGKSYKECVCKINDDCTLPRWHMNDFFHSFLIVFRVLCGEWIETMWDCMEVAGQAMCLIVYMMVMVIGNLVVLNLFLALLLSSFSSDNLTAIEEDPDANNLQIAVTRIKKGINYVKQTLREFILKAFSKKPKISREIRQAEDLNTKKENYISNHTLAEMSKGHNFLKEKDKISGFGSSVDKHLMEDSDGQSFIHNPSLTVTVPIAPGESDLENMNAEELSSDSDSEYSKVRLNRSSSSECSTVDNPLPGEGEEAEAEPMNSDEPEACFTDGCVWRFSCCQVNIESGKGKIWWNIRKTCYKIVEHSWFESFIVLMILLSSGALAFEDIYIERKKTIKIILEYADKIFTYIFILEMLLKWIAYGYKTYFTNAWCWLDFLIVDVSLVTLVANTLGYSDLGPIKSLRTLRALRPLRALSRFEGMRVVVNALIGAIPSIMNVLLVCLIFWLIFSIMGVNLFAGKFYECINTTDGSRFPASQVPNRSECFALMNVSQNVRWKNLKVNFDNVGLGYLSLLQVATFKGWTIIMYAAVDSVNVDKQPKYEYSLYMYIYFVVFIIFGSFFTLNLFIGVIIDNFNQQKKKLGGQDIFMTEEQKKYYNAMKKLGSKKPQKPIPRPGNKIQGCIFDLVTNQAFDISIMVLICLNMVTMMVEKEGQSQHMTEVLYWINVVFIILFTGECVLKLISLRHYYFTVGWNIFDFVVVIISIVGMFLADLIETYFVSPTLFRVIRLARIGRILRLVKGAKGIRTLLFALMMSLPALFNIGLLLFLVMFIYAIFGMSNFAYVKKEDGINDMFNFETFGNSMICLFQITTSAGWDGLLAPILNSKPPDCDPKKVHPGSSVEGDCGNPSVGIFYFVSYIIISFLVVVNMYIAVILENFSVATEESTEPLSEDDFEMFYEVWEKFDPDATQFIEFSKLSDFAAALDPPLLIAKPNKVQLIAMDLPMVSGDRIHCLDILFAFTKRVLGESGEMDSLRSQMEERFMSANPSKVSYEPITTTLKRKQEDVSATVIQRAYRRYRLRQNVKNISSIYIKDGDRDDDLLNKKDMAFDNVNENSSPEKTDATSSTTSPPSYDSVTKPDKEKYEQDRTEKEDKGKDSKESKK
# EXPERIMENT: in-vitro Nav 1.7 PX (IC50)
# Type: cell-based
# EXPERIMENTAL_SETUP: in-vitro Nav 1.7 PX data
PROPERTY_LABEL: IC50 (nM)

For orientation, consider the following solved cases.
MOLECULE	MEASURED_TARGET	IC50 / nM
COc1cc(-c2cc(F)c(F)cc2F)ccc1-n1c(=O)ccc2cc(S(=O)(=O)Nc3ccon3)ccc21 [Example 1024]	Nav 1.7 (Homo sapiens (Human), UniProt Q15858)	62
COc1cc(-c2cccc(C3CC3)c2)c(F)cc1-n1c(=O)ccc2cc(S(=O)(=O)Nc3ccon3)ccc21 [Example 790]	Nav 1.7 (Homo sapiens (Human), UniProt Q15858)	5
COc1cc(-c2cccc(C(F)(F)F)c2)ccc1-n1c(=O)ccc2cc(S(=O)(=O)Nc3cncc(C)n3)ccc21 [Example 950]	Nav 1.7 (Homo sapiens (Human), UniProt Q15858)	99

P: COc1cc(-c2cccc(F)c2)ccc1-n1c(=O)ccc2cc(S(=O)(=O)Nc3ccon3)ccc21 [Example 818]
Q: COCCCOc1nc(OC)c(-n2c(=O)ccc3cc(S(=O)(=O)Nc4ccon4)ccc32)cc1Cl [Example 831]
q: Of the pair P and Q , name the member with the lesser recorded IC50. Use the label to indicate which entry you chose.
a: P

1: COc1cc(-c2cccc(C(F)(F)F)c2)ccc1-n1c(=O)ccc2cc(S(=O)(=O)Nc3cnccn3)ccc21 [Example 915]
2: COc1cc(-c2ccccc2)c(F)cc1-n1c(=O)ccc2cc(S(=O)(=O)Nc3ccon3)ccc21 [Example 701]
q: 1 or 2 : whose IC50 is greater? Use the label to indicate which entry you chose.
a: 2

I: COc1cc(-c2cc(F)cc(C(F)(F)F)c2)ccc1-n1c(=O)ccc2cc(S(=O)(=O)Nc3ccnc(C)n3)ccc21 [Example 1100]
II: COc1ccc(-c2ccc(C(F)(F)F)cc2)cc1-n1c(=O)ccc2cc(S(=O)(=O)Nc3ccon3)ccc21 [Example 843]
q: I or II : whose IC50 is greater? Use the label to indicate which entry you chose.
a: I
(I: 37 nM, II: 23 nM)

a: COc1cc(-c2cccc(C)c2OC)c(F)cc1-n1c(=O)ccc2cc(S(=O)(=O)Nc3ccon3)ccc21 [Example 792]
b: COc1cc(-c2cc(Cl)ccc2C)ccc1-n1c(=O)ccc2cc(S(=O)(=O)Nc3ccon3)ccc21 [Example 1029]
q: Of the pair a and b , name the member with the lesser recorded IC50. Use the label to indicate which entry you chose.
a: b

1: COc1ccc(-c2ccc(Cl)c(F)c2)cc1-n1c(=O)ccc2cc(S(=O)(=O)Nc3ccon3)ccc21 [Example 874]
2: COc1cc(CC2CCCCC2)c(F)cc1-n1c(=O)ccc2cc(S(=O)(=O)Nc3ncco3)ccc21 [Example 1110]
3: COc1ccc(-c2ccc(Cl)cc2)cc1-n1c(=O)ccc2cc(S(=O)(=O)Nc3ccon3)ccc21 [Example 857]
q: Put the items in order so that reported IC50 rises from first to last. Please respond by ranking the labels in the order requested.
a: 3, 1, 2

I: COc1cc(F)cc(-c2ccc(-n3c(=O)ccc4cc(S(=O)(=O)Nc5ncccn5)ccc43)c(OC)c2)c1 [Example 996]
II: COc1cc(-c2ccc(Cl)cc2C(N)=O)c(F)cc1-n1c(=O)ccc2cc(S(=O)(=O)Nc3ccon3)ccc21 [Example 755]
q: I or II : whose IC50 is greater? Use the label to indicate which entry you chose.
a: II
(II: 351 nM, I: 52 nM)

I: COc1cc(-c2ccc(Cl)c(C)c2)ccc1-n1c(=O)ccc2cc(S(=O)(=O)Nc3ncc(F)cn3)ccc21 (atropisomer, axis not shown; (P)) [Example 690]
II: COc1cc(C#CC2CCCC2)c(F)cc1-n1c(=O)ccc2cc(S(=O)(=O)Nc3ncc(F)cn3)ccc21 [Example 1135]
q: Of the pair I and II , name the member with the lesser recorded IC50. Use the label to indicate which entry you chose.
a: I
(I: 49 nM, II: 114 nM)

1: COc1cc(-c2cccc(Cl)c2F)c(F)cc1-n1c(=O)ccc2cc(S(=O)(=O)Nc3ccon3)ccc21 [Example 703]
2: COc1cc(-c2ccc(Cl)c(C)c2)ccc1-n1c(=O)ccc2cc(S(=O)(=O)Nc3ccc(F)cn3)ccc21 (atropisomer, axis not shown; (P)) [Example 689]
3: COc1cc(-c2ccc(C)c(F)c2)c(F)cc1-n1c(=O)ccc2cc(S(=O)(=O)Nc3ncco3)ccc21 [Example 1125]
q: Put the items in order so that reported IC50 rises from first to last. Please respond by ranking the labels in the order requested.
a: 1, 2, 3

* * *

# MEASURED_TARGET: Nav 1.5 (Homo sapiens (Human), UniProt Q14524)
# Sequence (Q14524 whole entry): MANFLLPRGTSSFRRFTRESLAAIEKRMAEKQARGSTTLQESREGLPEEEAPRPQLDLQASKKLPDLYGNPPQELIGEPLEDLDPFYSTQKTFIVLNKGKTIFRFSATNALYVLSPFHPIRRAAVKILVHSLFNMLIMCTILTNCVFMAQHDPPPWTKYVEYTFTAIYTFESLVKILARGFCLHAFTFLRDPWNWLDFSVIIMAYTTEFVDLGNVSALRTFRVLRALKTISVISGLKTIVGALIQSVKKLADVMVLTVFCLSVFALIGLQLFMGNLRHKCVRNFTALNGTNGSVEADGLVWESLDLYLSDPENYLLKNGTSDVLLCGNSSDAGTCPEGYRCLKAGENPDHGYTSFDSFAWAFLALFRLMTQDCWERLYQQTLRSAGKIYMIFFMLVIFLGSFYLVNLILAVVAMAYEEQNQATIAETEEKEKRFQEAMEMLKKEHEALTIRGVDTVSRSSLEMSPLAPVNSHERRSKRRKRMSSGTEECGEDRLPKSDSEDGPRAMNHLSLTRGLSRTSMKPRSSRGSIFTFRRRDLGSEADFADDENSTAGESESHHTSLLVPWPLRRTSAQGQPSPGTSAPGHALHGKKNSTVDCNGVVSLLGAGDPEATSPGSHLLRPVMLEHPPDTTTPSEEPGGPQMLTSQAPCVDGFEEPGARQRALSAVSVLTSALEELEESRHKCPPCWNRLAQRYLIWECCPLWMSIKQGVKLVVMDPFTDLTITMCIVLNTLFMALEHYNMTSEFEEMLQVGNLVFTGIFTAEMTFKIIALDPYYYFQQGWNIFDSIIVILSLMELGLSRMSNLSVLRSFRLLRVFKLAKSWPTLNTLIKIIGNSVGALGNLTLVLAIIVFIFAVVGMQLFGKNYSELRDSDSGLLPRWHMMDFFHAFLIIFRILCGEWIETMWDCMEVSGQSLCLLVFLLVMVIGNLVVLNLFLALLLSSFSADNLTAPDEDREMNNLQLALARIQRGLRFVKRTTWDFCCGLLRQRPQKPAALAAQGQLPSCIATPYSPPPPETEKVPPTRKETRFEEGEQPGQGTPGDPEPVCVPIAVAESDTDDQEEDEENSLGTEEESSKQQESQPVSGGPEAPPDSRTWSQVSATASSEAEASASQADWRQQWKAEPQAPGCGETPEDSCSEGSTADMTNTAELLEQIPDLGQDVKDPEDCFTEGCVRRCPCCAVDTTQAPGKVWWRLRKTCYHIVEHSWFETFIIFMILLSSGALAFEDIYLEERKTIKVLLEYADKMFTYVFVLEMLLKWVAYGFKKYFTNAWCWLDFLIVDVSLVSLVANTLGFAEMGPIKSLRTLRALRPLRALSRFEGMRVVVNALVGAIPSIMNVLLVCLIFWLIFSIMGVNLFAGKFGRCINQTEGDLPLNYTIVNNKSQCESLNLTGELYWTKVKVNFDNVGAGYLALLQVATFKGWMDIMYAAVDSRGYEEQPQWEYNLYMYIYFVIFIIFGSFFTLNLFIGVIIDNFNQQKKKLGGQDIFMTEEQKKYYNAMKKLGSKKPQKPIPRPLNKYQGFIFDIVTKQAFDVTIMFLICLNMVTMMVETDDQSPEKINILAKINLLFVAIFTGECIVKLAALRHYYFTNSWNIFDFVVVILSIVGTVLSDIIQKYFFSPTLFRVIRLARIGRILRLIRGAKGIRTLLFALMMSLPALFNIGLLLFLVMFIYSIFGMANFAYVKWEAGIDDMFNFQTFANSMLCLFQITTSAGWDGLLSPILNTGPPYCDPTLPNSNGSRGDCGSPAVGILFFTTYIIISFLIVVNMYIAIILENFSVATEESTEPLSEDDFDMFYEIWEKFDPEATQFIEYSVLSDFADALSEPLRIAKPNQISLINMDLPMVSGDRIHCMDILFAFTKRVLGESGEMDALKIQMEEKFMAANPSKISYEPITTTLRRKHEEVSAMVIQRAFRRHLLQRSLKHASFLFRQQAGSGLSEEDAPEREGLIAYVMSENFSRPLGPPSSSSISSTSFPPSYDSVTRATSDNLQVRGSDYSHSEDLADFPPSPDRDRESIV
# EXPERIMENT: in-vitro Nav 1.5 PX (IC50)
# EXPERIMENTAL_SETUP: read-out: Nav 1.5 PX IC50; in-vitro Nav 1.5 PX data
pIC50: −log10 of the molar value.
PROPERTY_LABEL: pIC50

For orientation, consider the following solved cases.
CHEMICAL_STRUCTURE	pIC50
COc1cc(Cl)cc(-c2cc(OC)c(-n3c(=O)ccc4cc(S(=O)(=O)Nc5ncccn5)ccc43)cc2F)c1	< 5.00
COc1cc(-c2ccc(Cl)c(C)c2)c(F)cc1-n1c(=O)ccc2cc(S(=O)(=O)Nc3ncns3)ccc21	< 5.00
COc1cc(-c2cc(OC)c(-n3c(=O)ccc4cc(S(=O)(=O)Nc5ccon5)ccc43)cc2F)ccc1C	< 5.00

--- query ---
q: Give reported pIC50 for `COc1cc(-c2ccc(F)c(C)c2)c(F)cc1-n1c(=O)ccc2cc(S(=O)(=O)Nc3ccon3)c(F)cc21` (Nav 1.5 (Homo sapiens (Human), UniProt Q14524))
a: 6.30

* * *

# MEASURED_TARGET: Nav 1.7 (Homo sapiens (Human))
# EXPERIMENT: in-vitro Nav 1.7 PX (IC50)
# Type: cell-based
# EXPERIMENTAL_SETUP: in-vitro Nav 1.7 PX data
pIC50: −log10 of the molar value.
PROPERTY_LABEL: pIC50

For orientation, consider the following solved cases.
MOLECULE	MEASURED_TARGET	pIC50
COc1cc(-c2cccc(Cl)c2C)c(F)cc1-n1c(=O)ccc2cc(S(=O)(=O)Nc3ccon3)ccc21	Nav 1.7 (Homo sapiens (Human))	8.22
COc1cc(C[C@@H]2C[C@@H]3CC[C@H]2O3)c(F)cc1-n1c(=O)ccc2cc(S(=O)(=O)Nc3ccon3)ccc21	Nav 1.7 (Homo sapiens (Human))	5.76
COc1nc(C#CC2CCCC2)c(Cl)cc1-n1c(=O)ccc2cc(S(=O)(=O)Nc3cccnn3)ccc21	Nav 1.7 (Homo sapiens (Human))	5.96
COc1cc(-c2ccc(Cl)c(C)c2)c(F)cc1-n1c(=O)ccc2cc(S(=O)(=O)Nc3ccsn3)ccc21	Nav 1.7 (Homo sapiens (Human))	7.64

I: COc1cc(-c2cc(F)cc(C(F)(F)F)c2)c(F)cc1-n1c(=O)ccc2cc(S(=O)(=O)Nc3ccon3)ccc21
II: COc1cc(-c2cccc(C)c2)ccc1-n1c(=O)ccc2cc(S(=O)(=O)Nc3ncco3)ccc21
q: Of the pair I and II , name the member with the lesser recorded pIC50. Use the label to indicate which entry you chose.
a: II

P: COc1cc(-c2ccc(Cl)c(C)c2)c(F)cc1-n1c(=O)ccc2cc(S(=O)(=O)Nc3ccc(F)cn3)ccc21 (atropisomer, axis not shown; (P))
Q: COc1cc(C)cc(-c2cc(OC)c(-n3c(=O)ccc4cc(S(=O)(=O)Nc5ncccn5)ccc43)cc2C)c1
q: P or Q : whose pIC50 is greater? Use the label to indicate which entry you chose.
a: Q
(Q: 7.85, P: 6.73)

* * *

# MEASURED_TARGET: Nav 1.7 (Homo sapiens (Human), UniProt Q15858)
# EXPERIMENT: in-vitro Nav 1.7 PX (IC50)
# Assay type: cell-based
# EXPERIMENTAL_SETUP: in-vitro Nav 1.7 PX data
PROPERTY_LABEL: IC50 (nM)

For orientation, consider the following solved cases.
COMPOUND	IC50 [nM]
COc1cc(-c2ccc(Cl)cc2)ccc1-n1c(=O)ccc2cc(S(=O)(=O)Nc3cccnn3)ccc21	112
Cc1cc(-c2cc(C)c(-n3c(=O)ccc4cc(S(=O)(=O)Nc5ncccn5)ccc43)cc2F)ccc1Cl (atropisomer, axis not shown; (P)) [Example 649]	49
COc1cc(-c2cc(OC)c(-n3c(=O)ccc4cc(S(=O)(=O)Nc5ccon5)ccc43)cc2F)ccc1C	14
COc1cc(-c2cc(OC)c(-n3c(=O)ccc4cc(S(=O)(=O)Nc5ncco5)ccc43)cc2F)ccc1F	207
COc1cc(-c2cc(OC)c(-n3c(=O)ccc4cc(S(=O)(=O)Nc5ccon5)ccc43)cc2F)c(Cl)cn1	100
COc1nc(-c2cc(F)cc(Cl)c2)c(Cl)cc1-n1c(=O)ccc2cc(S(=O)(=O)Nc3ccon3)ccc21 [Example 1070]	12
COc1cc(-c2cc(Cl)cnc2OC)ccc1-n1c(=O)ccc2cc(S(=O)(=O)Nc3ccon3)ccc21	101
COc1cc(-c2ccc(Cl)c(C)c2)c(F)cc1-n1c(=O)ccc2cc(S(=O)(=O)Nc3ncon3)ccc21 (atropisomer, axis not shown; (P))	6

P: COc1cncc(-c2cc(OC)c(-n3c(=O)ccc4cc(S(=O)(=O)Nc5ccon5)ccc43)cc2F)c1
Q: COc1cc(-c2ccc(F)cc2)c(F)cc1-n1c(=O)ccc2cc(S(=O)(=O)Nc3ccnc(C)n3)ccc21
R: COc1cc(Cl)cc(-c2cc(OC)cc(-c3cc(OC)c(-n4c(=O)ccc5cc(S(=O)(=O)Nc6ccon6)ccc54)cc3F)c2)c1
q: Put the items in order so that reported IC50 rises from first to last. Please respond by ranking the labels in the order requested.
a: R, Q, P

1: COc1cc(-c2ccc(Cl)cc2)c(F)cc1-n1c(=O)ccc2cc(S(=O)(=O)Nc3cc(C)ncn3)ccc21
2: COc1cnc(Cl)cc1-n1c(=O)ccc2cc(S(=O)(=O)Nc3ccon3)ccc21
q: Of the pair 1 and 2 , name the member with the lesser recorded IC50. Use the label to indicate which entry you chose.
a: 1
(1: 20 nM, 2: 3880 nM)
